- System: At chloroplastic ALT-3-01 T1 plants
- PROTOCOL_DESCRIPTION: Herbicide tolerance of Arabidopsis thaliana T1 plants, sprayed, resistance classes counted 14 days after spraying
- Type: in vivo
- MEASUREMENT_CONDITIONS: sprayed at 1-fold field concentration
Each entry below carries its recorded Highly resistant (number of plants).

[
  {
    "GIVEN_SMILES": "COC(=O)c1ccc(CNS(C)(=O)=O)cc1S(=O)(=O)NC(=O)Nc1nc(OC)cc(OC)n1",
    "Highly resistant (number of plants)": 0
  },
  {
    "GIVEN_SMILES": "COC(=O)c1ccccc1S(=O)(=O)NC(=O)N(C)c1nc(C)nc(OC)n1",
    "Highly resistant (number of plants)": 27
  },
  {
    "GIVEN_SMILES": "Cc1cc(C)nc(NC(=O)NS(=O)(=O)c2ccccc2C(=O)OC2COC2)n1",
    "Highly resistant (number of plants)": 0
  },
  {
    "GIVEN_SMILES": "COC(=O)c1ccc(I)cc1S(=O)(=O)NC(=O)Nc1nc(C)nc(OC)n1",
    "Highly resistant (number of plants)": 0
  }
]

Origin of values: patent US20190029252A1
